pEC50 overview
# systemName: Bile acid receptor (Homo sapiens, UniProt Q96RI1)
# Sequence (Q96RI1 whole entry): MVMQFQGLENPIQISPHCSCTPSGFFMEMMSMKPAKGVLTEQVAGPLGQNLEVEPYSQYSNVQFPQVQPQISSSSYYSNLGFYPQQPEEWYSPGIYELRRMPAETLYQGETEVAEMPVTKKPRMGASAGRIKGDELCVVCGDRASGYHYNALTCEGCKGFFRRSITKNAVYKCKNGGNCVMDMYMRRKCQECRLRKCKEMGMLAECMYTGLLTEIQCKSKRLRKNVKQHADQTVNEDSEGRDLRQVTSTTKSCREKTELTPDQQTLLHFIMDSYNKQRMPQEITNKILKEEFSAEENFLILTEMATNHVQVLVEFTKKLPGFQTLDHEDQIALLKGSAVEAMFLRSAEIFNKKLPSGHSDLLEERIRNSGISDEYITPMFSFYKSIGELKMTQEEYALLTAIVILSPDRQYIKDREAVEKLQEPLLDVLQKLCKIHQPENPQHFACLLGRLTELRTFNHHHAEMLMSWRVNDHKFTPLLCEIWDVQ
# protocolText: Agonist activity at human FXR expressed in human HeLa cells assessed as receptor activation by BSEP promoter-driven firefly luciferase reporter gene assay
# Format: cell-based
# experimentalParameters: read-out: EC50
Reminder that pEC50 is minus the log10 of a molar concentration.

{"columns": ["compound", "pEC50"],
 "data": [
  ["O=C(O)c1cccc(NC(=O)c2ccccc2NC(=O)c2ccc3c(c2)OCCO3)c1", 5.31]
]}

Fill in pEC50 for record CSc1cccc(NC(=O)c2ccccc2NC(=O)c2ccc(C(C)(C)C)cc2)c1
6.70

Fill in pEC50 for record O=C(/C=C/c1ccccc1)Nc1ccccc1C(=O)Nc1cccc(C(=O)O)c1
5.28

Fill in pEC50 for record CC(C)(C)c1ccc(C(=O)Nc2cc(Br)ccc2C(=O)Nc2cccc(C(=O)O)c2)cc1
7.32

Fill in pEC50 for record CC(C)(C)c1ccc(C(=O)Nc2ccccc2C(=O)Nc2ccc(Br)c(C(=O)O)c2)cc1
6.82

Fill in pEC50 for record CC(C)(C)c1ccc(C(=O)Nc2ccccc2C(=O)Nc2cc(C(=O)O)ccc2Cl)cc1
5.96

Fill in pEC50 for record CC(C)(C)c1ccc(C(=O)Nc2ccccc2C(=O)Nc2cc(C(=O)O)ccc2F)cc1
6.32

---

IC50 overview
# systemName: Bile acid receptor (Homo sapiens, UniProt Q96RI1)
# protocolText: Antagonist activity at human FXR expressed in human HeLa cells assessed as inhibition of receptor activation by BSEP promoter-driven firefly luciferase reporter gene assay
The reply should be a number in µM, with the unit left off.

{"columns": ["compound", "quantityUnit", "recordedNumber"],
 "data": [
  ["CC(C)(C)c1ccc(C(=O)Nc2ccc(Cl)cc2C(=O)Nc2cccc(C(=O)O)c2)cc1", "µM", 12.3]
]}

Fill in IC50 for record COc1ccc(NC(=O)c2ccc(C(C)(C)C)cc2)c(C(=O)Nc2cccc(C(=O)O)c2)c1
15.1

---

# systemName: Peroxisome proliferator-activated receptor gamma (Homo sapiens)
# Sequence (P37231 whole entry, the tested form may be a part): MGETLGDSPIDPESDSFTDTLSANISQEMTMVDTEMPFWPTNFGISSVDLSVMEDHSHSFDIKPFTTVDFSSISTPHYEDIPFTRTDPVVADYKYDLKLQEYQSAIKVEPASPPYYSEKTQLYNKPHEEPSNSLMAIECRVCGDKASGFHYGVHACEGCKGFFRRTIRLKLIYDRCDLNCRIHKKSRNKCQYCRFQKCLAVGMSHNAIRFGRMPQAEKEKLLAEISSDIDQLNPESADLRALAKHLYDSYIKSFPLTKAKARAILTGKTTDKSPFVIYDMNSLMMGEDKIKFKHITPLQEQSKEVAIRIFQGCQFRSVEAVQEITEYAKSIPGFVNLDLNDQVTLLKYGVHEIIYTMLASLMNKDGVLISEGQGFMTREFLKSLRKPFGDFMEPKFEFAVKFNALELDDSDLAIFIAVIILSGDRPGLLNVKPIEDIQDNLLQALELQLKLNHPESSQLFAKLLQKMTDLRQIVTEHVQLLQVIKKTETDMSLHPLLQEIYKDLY
# protocolText: Activity at GAL4-tagged PPARgamma (unknown origin) expressed in COS7 cells assessed as receptor transactivation by luciferase reporter gene assay
metricName: pEC50
Reminder that pEC50 is minus the log10 of a molar concentration.

Fill in pEC50 for record COc1ccc(C(=O)Nc2cccc(C(=O)O)c2)c(NC(=O)c2ccc(C(C)(C)C)cc2)c1
5.52
